Assay: Dog plasma PK, IV and oral
Type: in vivo
Conditions: male, Beagle, dog, plasma, iv, 2.1 mg/kg, IV 2.1 mg kg-1, Dog 1
ENDPOINT: Cmax
Express your answer as a number followed by its unit.

## Task // returns reported Cmax for input Cc1nc(Nc2ncc(N3CCN(C)[C@H](C)C3)c(Nc3cc(C)n(C)n3)n2)cc(C2CC2)c1F [compound 12]
## Result 641 nM

====

Assay: in vitro
Format: in vitro ADME
Conditions: human, pH 7.4; HLM, Michaelis-Menten
Protocol: Supplementary Note 3: Metabolism of 12 in the presence of mouse (MLM) and human […] The kinetics of metabolism of compound 12 to form the N-demethylated metabolite, 9, was studied by incubating 12 with HLM or MLM. […] Aliquots of 20 µL of incubation mix were quenched with 4 volumes of ice-cold acetonitrile at different time points, i.e., 0, 5, 10, 20 and 30 min in a 96 well microtitre plate. […] Depletion of 12 and formation of 9 was analysed by LC-MS/MS. […]
ENDPOINT: Km (µM)
Give a bare numeral; the unit µM is implied.

## Task // returns reported Km for input Cc1nc(Nc2ncc(N3CCN(C)[C@H](C)C3)c(Nc3cc(C)n(C)n3)n2)cc(C2CC2)c1F
## Result 22.5

====

System: Dd2-6R F4 D4
Assay: SYBR green growth assay, Dd2-6R F4 D4
Conditions: Plasmodium falciparum
pIC50: −log10 of the molar value.
Quick rule for you: pIC50 at 8 or higher means True, lower means False.

## Task Exam item: decide whether the reported pIC50 for Cc1nc(Nc2ncc(N3CCN(C)[C@H](C)C3)c(Nc3cc(C)n(C)n3)n2)cc(C2CC2)c1F is at least 8.
## Result False

## Task Exam item: decide whether the reported pIC50 for C[C@H]1[C@H](OC(=O)CCC(=O)O)O[C@@H]2O[C@@]3(C)CC[C@H]4[C@H](C)CC[C@@H]1[C@@]24OO3 [Artesunate] is at least 8.
## Result True

Moving on to another molecule below.
## Task Exam item: decide whether the reported pIC50 for CNc1nc(Nc2ccc(OCC(F)(F)F)c(C)n2)ncc1N1CCN[C@H](C)C1 is at least 8.
## Result False

====

Test: Rat blood PK, IV and oral
Format: in vivo
Settings: Wistar, rat, whole blood, po, 10 mg/kg, Oral 10 mg kg-1, Rat 3
ENDPOINT: AUC(0-inf) (µM·h)
Give a bare numeral; the unit µM·h is implied.

## Task // returns reported AUC(0-inf) for input Cc1nc(Nc2ncc(N3CCN(C)[C@H](C)C3)c(Nc3cc(C)n(C)n3)n2)cc(C2CC2)c1F [compound 12]
## Result 36

====

Assay: Rat blood PK, IV and oral
Format: in vivo
Details: Wistar, rat, whole blood, iv, 2 mg/kg, IV 2 mg kg-1, Rat 3; read-out: Vss
ENDPOINT: Vd (L/kg)
Give a bare numeral; the unit L/kg is implied.

## Task // returns reported Vd for input Cc1nc(Nc2ncc(N3CCN(C)[C@H](C)C3)c(Nc3cc(C)n(C)n3)n2)cc(C2CC2)c1F
## Result 7.2

====

Assay: Rat blood PK, IV and oral
Format: in vivo
Settings: Wistar, rat, whole blood, iv, 2 mg/kg, IV 2 mg kg-1, Rat 1; read-out: CL
ENDPOINT: clearance

## Task // returns reported clearance for input Cc1nc(Nc2ncc(N3CCN(C)[C@H](C)C3)c(Nc3cc(C)n(C)n3)n2)cc(C2CC2)c1F
## Result 13.1 mL/min/kg
